Molecular target: CCK-B receptors (Rattus norvegicus)
Construct: the whole brain was immediately excised from each of the rats and homogenized; from tissue; host or cells: SD rat whole-brain membrane preparation
Sequence (P30553 whole entry): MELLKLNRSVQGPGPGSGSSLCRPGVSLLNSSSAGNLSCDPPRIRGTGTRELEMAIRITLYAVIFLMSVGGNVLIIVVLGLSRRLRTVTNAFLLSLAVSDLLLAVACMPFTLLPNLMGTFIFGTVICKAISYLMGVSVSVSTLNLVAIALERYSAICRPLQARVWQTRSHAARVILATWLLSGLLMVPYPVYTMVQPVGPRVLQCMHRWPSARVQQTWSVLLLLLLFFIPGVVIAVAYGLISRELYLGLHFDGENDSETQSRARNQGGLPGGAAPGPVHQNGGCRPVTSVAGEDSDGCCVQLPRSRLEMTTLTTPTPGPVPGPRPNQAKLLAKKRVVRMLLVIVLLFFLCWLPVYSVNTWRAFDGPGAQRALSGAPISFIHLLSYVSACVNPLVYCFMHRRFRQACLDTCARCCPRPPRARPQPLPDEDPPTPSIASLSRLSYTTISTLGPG
Experiment: Measurement of binding affinity for CCK-B receptors ([125I]BH-CCK-8 displacement, brain membrane preparation)
Set-up: species or system SD rats
Details: selectivity, ratio IC50 (CCK-A)/IC50 (CCK-B)
// A/B Ratio lookup, one value per entry

>>> result("CC(C)(C)C(=O)CN1C(=O)[C@H](NC(=O)Nc2cccc(N)c2)N=C(c2ccccc2)c2ccccc21")
"1,900"
>>> result("CC(C)(C)C(=O)CN1C(=O)C(NC(=O)Nc2cccc([N+](=O)[O-])c2)N=C(c2ccccc2)c2ccccc21 (racemic)")
"3,700"
>>> result("CCC(C)(C)C(=O)CN1C(=O)C(NC(=O)Nc2cccc(C)c2)N=C(c2ccccc2)c2ccccc21 (racemic)")
"1,300"
>>> result("CN(C)c1cccc(NC(=O)NC2N=C(c3ccccc3)c3ccccc3N(CC(=O)C(C)(C)C)C2=O)c1 (racemic)")
"1,100"
>>> result("CC(C)(C)C(=O)CN1C(=O)C(NC(=O)Nc2cccc(C(=O)O)c2)N=C(c2ccccn2)c2ccccc21 (racemic)")
"2,400"
>>> result("Cc1cccc(NC(=O)N[C@@H]2N=C(c3ccccc3)c3ccccc3N(C)C2=O)c1 [reference compound]")
410

Incoming: I am curious: what A/B Ratio value has been reported for CCC(C)(C)C(=O)CN1C(=O)C(NC(=O)Nc2cccc(C(=O)O)c2)N=C(c2ccccc2)c2ccccc21 (racemic) ?
Outgoing: 5,100

Incoming: Recorded A/B Ratio for CNc1cccc(NC(=O)N[C@@H]2N=C(c3ccccc3)c3ccccc3N(CC(=O)C(C)(C)C)C2=O)c1 , please?
Outgoing: 1,100

====

Biological target: CCK-B receptors (Rattus norvegicus)
Construct: the whole brain was immediately excised from each of the rats and homogenized; from tissue; host or cells: SD rat whole-brain membrane preparation
Assay: Measurement of binding affinity for CCK-B receptors ([125I]BH-CCK-8 displacement, brain membrane preparation)
Parameters: species or system SD rats
Conditions: rat whole brain membranes, [125I]BH-CCK-8, 25°C, 120 minutes; read-out: Receptor binding affinity IC50(nM) CCK-B
The compounds listed here are annotated with their IC50.
Write the number in nM without appending the unit.

>>> recorded_number("CNc1cccc(NC(=O)N[C@@H]2N=C(c3ccccc3)c3ccccc3N(CC(=O)C(C)(C)C)C2=O)c1 [Example 56]")
0.11
>>> recorded_number("Cc1cccc(NC(=O)N[C@@H]2N=C(c3ccccc3)c3ccccc3N(C)C2=O)c1 [reference compound]")
29

Incoming: # query: IC50 of entry CC(C)(C)C(=O)CN1C(=O)[C@H](NC(=O)Nc2cccc(N)c2)N=C(c2ccccc2)c2ccccc21 [Example 66]
Outgoing: 0.5

====

System: pentagastrin-stimulated gastric acid secretion
Experiment: Inhibition of pentagastrin-stimulated gastric acid secretion in dog (Heidenhain pouch)
Type: in vivo, male beagle dogs
Conditions: maximum inhibition of stimulated acid output, oral, 3 µmol/kg, pentagastrin 8 µg/kg/hr infusion, mean for 3 - 5 animals
Measurement kind: Inhibidon (dose)

# annotated cases, reported Inhibidon (dose) shown
>>> result("CN(C)c1cccc(NC(=O)NC2N=C(c3ccccn3)c3ccccc3N(CC(=O)C(C)(C)C)C2=O)c1 (racemic)")
"100% (3 µmol/kg)"
>>> result("CN(C)c1cccc(NC(=O)N[C@@H]2N=C(c3ccccc3)c3ccccc3N(CC(=O)C(C)(C)C)C2=O)c1")
"100% (3 µmol/kg)"
>>> result("Cc1cccc(NC(=O)N[C@@H]2N=C(c3ccccc3)c3ccccc3N(CC(=O)C(C)(C)C)C2=O)c1")
"53% (3 µmol/kg)"

Consider the additional compound presented here.
Incoming: Reported Inhibidon (dose), compound Cc1cccc(NC(=O)NC2N=C(c3ccccn3)c3ccccc3N(CC(=O)C(C)(C)C)C2=O)c1 (racemic) : ____
Outgoing: 66% (3 µmol/kg)

====

Target: CCK-A receptors (Rattus norvegicus)
Construct: The pancreas of an SD rat was homogenized; from tissue; host or cells: SD rat pancreas membrane preparation
Sequence (P30551 1-444): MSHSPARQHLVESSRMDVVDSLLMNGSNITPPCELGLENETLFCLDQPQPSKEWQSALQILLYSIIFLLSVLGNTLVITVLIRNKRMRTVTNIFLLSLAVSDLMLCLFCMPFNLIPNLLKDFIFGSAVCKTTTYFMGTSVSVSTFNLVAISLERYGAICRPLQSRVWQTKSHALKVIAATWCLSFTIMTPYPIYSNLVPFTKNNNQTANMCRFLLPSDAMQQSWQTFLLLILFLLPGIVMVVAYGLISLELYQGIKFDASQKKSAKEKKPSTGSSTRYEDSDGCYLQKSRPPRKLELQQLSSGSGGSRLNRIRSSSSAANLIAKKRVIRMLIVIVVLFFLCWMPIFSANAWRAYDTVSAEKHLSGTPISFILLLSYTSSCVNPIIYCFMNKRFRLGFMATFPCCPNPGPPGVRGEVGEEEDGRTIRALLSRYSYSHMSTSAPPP
Assay: Measurement of binding affinity for CCK-A receptors ([3H]L-364,718 displacement, pancreas membrane preparation)
Set-up: species or system SD rat
Measurement kind: pIC50
Scale explanation: pIC50 corresponds to minus log10 of a concentration expressed in moles per litre.

Consider the worked cases shown below.
>>> recorded_number("CC(C)(C)C(=O)CN1C(=O)C(NC(=O)Nc2cccc([N+](=O)[O-])c2)N=C(c2ccccc2)c2ccccc21 (racemic)")
6.23
>>> recorded_number("CCC(C)(C)C(=O)CN1C(=O)C(NC(=O)Nc2cccc(C)c2)N=C(c2ccccc2)c2ccccc21 (racemic)")
6.14
>>> recorded_number("CN(C)c1cccc(NC(=O)NC2N=C(c3ccccc3)c3ccccc3N(CC(=O)C(C)(C)C)C2=O)c1 (racemic)")
5.17

Incoming: # get_value(readout= pIC50, system= CCK-A receptors (Rattus norvegicus)) for CC(C)(C)C(=O)CN1C(=O)C(NC(=O)Nc2cccc(C(=O)O)c2)N=C(c2ccccn2)c2ccccc21 (racemic)
Outgoing: 6.62

Incoming: Give recorded pIC50 with CCK-A receptors (Rattus norvegicus) for the following molecule: CCC(C)(C)C(=O)CN1C(=O)C(NC(=O)Nc2cccc(C(=O)O)c2)N=C(c2ccccc2)c2ccccc21 (racemic)
Outgoing: 5.25

====

Molecular target: CCK-A receptors (Rattus norvegicus, UniProt P30551)
Construct: The pancreas of an SD rat was homogenized; from tissue; host or cells: SD rat pancreas membrane preparation
Assay: Measurement of binding affinity for CCK-A receptors ([3H]L-364,718 displacement, pancreas membrane preparation)
Set-up: species or system SD rat
Settings: rat pancreas membranes, [3H]L-364,718, 37°C, 30 minutes; read-out: Receptor binding affinity IC50(nM) CCK-A
Measurement kind: IC50 (nM)
Express it in nM; write the number only.

>>> recorded_number("CC(C)(C)C(=O)CN1C(=O)[C@H](NC(=O)Nc2cccc(N)c2)N=C(c2ccccc2)c2ccccc21")
950

Incoming: Any idea what IC50 was measured for Cc1cccc(NC(=O)N[C@@H]2N=C(c3ccccc3)c3ccccc3N(C)C2=O)c1 [reference compound] ?
Outgoing: 12000

Incoming: Give the measured IC50 of CNc1cccc(NC(=O)N[C@@H]2N=C(c3ccccc3)c3ccccc3N(CC(=O)C(C)(C)C)C2=O)c1 .
Outgoing: 120
